Values were extracted from PubChem BioAssay (NCI).

- Test system: RXF-631 renal
- protocol-summary: NCI tumour cell line growth inhibition, 48 h
quantity-measured: TGI

The following compounds have reported results that may help.
# compound, TGI
records = [
    ("O=S1OC(c2ccccc2)(c2ccccc2)C(c2ccccc2)(c2ccccc2)O1", "> 100 µM"),
    ("COC(=O)C(=O)C(C#N)c1nc2ccccc2s1 (stereo unspecified)", "> 100 µM"),
    ("Cc1c(C(Cc2ccccc2N(C)C(=O)/C=C\\C(=O)O)c2c[nH]c3ccccc23)c2ccccc2n1C (stereo unspecified)", "27.9 µM"),
    ("NC1=C(O)c2cccc3cccc(c23)C1=O", "> 100 µM"),
]

Entry Cc1ccc(S(=O)c2ccccc2[N+](=O)[O-])cc1 (stereo unspecified) ; assay system RXF-631 renal; TGI recorded at > 100 µM

Entry NC(N)NCCCc1cn2c(n1)C1CCCN1C(=O)C2Cc1ccccc1 (stereo unspecified) ; assay system RXF-631 renal; TGI recorded at > 100 µM

====

- Test system: UACC-62 melanoma
- protocol-summary: NCI tumour cell line growth inhibition, 48 h
# maps each entry to its GI50

# compound, GI50
measured = [
    ("O=C([CH-]C(=O)c1ccccc1)c1ccccc1.O=C([CH-]C(=O)c1ccccc1)c1ccccc1.O=C([CH-]C(=O)c1ccccc1)c1ccccc1.[Ga+3]", "32.7 µM"),
    ("O=C(O)c1ccc(N(/C=C/C(=O)C(F)(F)F)Cc2ccc(Cl)cc2)cc1", "24 µM"),
    ("CCOC(=O)c1noc2c1CCc1c-2cn(Cc2ccc(OC)cc2)c1-c1cc(OC)c(OC)c(OC)c1", "2.74 µM"),
    ("CC[C@@]1(OP(=O)(O)O)C(=O)OCc2c1cc1n(c2=O)Cc2cc3ccccc3nc2-1", "0.0269 µM"),
    ("O=C1NN2CC(c3ccccc3)=NN=C2c2ccccc21", "22.6 µM"),
    ("O=c1nc2n(-c3cccc(Cl)c3)c3ccc([N+](=O)[O-])cc3cc-2c(=O)[nH]1", "3.54 µM"),
    ("O=c1[nH]c2ccccc2n1C1CCNCC1", "> 100 µM"),
    ("N#CC1=C(N)Oc2c(sc3c(Br)cccc23)C1c1ccc([N+](=O)[O-])cc1 (stereo not drawn)", "0.0634 µM"),
]

Data point: CC(C)=CC[C@@H]1CC2(CC=C(C)C)C(=O)C(OC3(C(=O)c4ccccc4)C(=O)C4(CC=C(C)C)C[C@@H](CC=C(C)C)C(C)(C)C(CC=C(C)C)(C4=O)C3=O)(C(=O)c3ccccc3)C(=O)C(CC=C(C)C)(C2=O)C1(C)C (stereo partly drawn) ; GI50 = 0.878 µM

Data point: "CC1(C)N=C(N)N=C(N)N1c1ccc(OCCCNC(=O)Nc2ccc(S(=O)(=O)F)cc2)c(Cl)c1" ; GI50 = 0.268 µM

====

- Test system: CAKI-1 renal
- protocol-summary: NCI tumour cell line growth inhibition, 48 h
quantity-measured: TGI (µM)
Answer in µM, number only, no unit symbol.

# smiles-data, TGI (µM)
measured = [
    ("CN1CCN(c2cc3[nH]c4cc(O)cc(O)c4c(=O)c3cc2N)CC1", 87),
]

# next compound below
Data point: "COc1cccc2c1nc(C(F)F)n2-c1nc(-c2ccc(NS(=O)(=O)CCN(C)C)cc2)nc(N2CCOCC2)n1" ; TGI = 4.69
